Tested on: GALAP Galium
Assay: Preemergence herbicidal evaluation, GALAP
Format: in vivo, Galium aparine
Design: scale not given here
Conditions: preemergence, rate 0.125 kg/ha
RECORDED_ENDPOINT: GALAP herbicidal rating
// return a plain number; no unit text

Query: If you can, please state the reported GALAP herbicidal rating value of COc1ccc(C)cc1-n1nnc2cc(F)c(-n3c(=O)cc(C(F)(F)F)n(C)c3=O)cc21 .
Result: 9.0

Query: Return reported GALAP herbicidal rating; argument: Cc1ccc(-n2nnc3cc(F)c(-n4c(=O)cc(C(F)(F)F)n(C)c4=O)cc32)cc1C
Result: 0.0

Query: // lookup GALAP herbicidal rating for CC(C)c1ccc(-n2nnc3cc(F)c(-n4c(=O)cc(C(F)(F)F)n(C)c4=O)cc32)cc1
Result: 0.0

Query: So what does the record say about GALAP herbicidal rating for COc1ccc(C)c(-n2nnc3cc(F)c(-n4c(=O)cc(C(F)(F)F)n(C)c4=O)cc32)c1 ?
Result: 0.0

----------
Test system: ECHOG Barnyardgrass
Assay: Preemergence herbicidal evaluation, ECHOG
Type: in vivo, Echinochloa crus-galli, (L.) Beau
Parameters: scale not given here
Conditions: preemergence, rate 0.032 kg/ha
Could you please mark True for values of ECHCG herbicidal rating below 2 and False for values at or above it?

Example results:
INSERT INTO measurements (chemical_smiles, group) VALUES
  ('COC(=O)COc1ccc(-n2nnc3cc(F)c(-n4c(=O)cc(C(F)(F)F)n(C)c4=O)cc32)c(C)c1', 'True'),
  ('CCc1ccc(-n2nnc3cc(F)c(-n4c(=O)cc(C(F)(F)F)n(C)c4=O)cc32)cc1', 'True'),
  ('COCc1ccccc1-n1nnc2cc(F)c(-n3c(=O)cc(C(F)(F)F)n(C)c3=O)cc21', 'False');

Query: In plain terms, does Cc1cc(O)ccc1-n1nnc2cc(F)c(-n3c(=O)cc(C(F)(F)F)n(C)c3=O)cc21 come in under 2 for ECHCG herbicidal rating?
Result: True

Query: Find out if reported ECHCG herbicidal rating for CCc1ccccc1-n1nnc2cc(F)c(-n3c(=O)cc(C(F)(F)F)n(C)c3=O)cc21 is less than 2
Result: True

Query: Dear reviewer, please state whether C=CCOc1ccc(C)cc1-n1nnc2cc(F)c(-n3c(=O)cc(C(F)(F)F)n(C)c3=O)cc21 has ECHCG herbicidal rating strictly beneath 2.
Result: False

Query: Quick check: does C#CCOC(=O)COc1ccc(C)c(-n2nnc3cc(F)c(-n4c(=O)cc(C(F)(F)F)n(C)c4=O)cc32)c1 have ECHCG herbicidal rating under 2?
Result: True

----------
Test system: IPOHE Morningglory, Ivyleaf
Assay: Preemergence herbicidal evaluation, IPOHE
Assay type: in vivo, Ipomoea hederacea, (L.) Jacq.
Design: scale not given here
Settings: preemergence, rate 0.125 kg/ha
RECORDED_ENDPOINT: IPOHE herbicidal rating
I only need the number, thanks.

Consider the worked cases shown below.
INSERT INTO assay_data (compound, assayed_target, recorded_endpoint, observed_value) VALUES
  ('Cc1ccc(-n2nnc3cc(F)c(-n4c(=O)cc(C(F)(F)F)n(C)c4=O)cc32)cc1C', 'IPOHE Morningglory, Ivyleaf', 'IPOHE herbicidal rating', 1.0),
  ('Cc1ccc(OCC(=O)O)cc1-n1nnc2cc(F)c(-n3c(=O)cc(C(F)(F)F)n(C)c3=O)cc21', 'IPOHE Morningglory, Ivyleaf', 'IPOHE herbicidal rating', 5.0),
  ('COc1ccc(C)c(-n2nnc3cc(F)c(-n4c(=O)cc(C(F)(F)F)n(C)c4=O)cc32)c1', 'IPOHE Morningglory, Ivyleaf', 'IPOHE herbicidal rating', 0.0);

Query: # query: IPOHE herbicidal rating of entry C=CCOc1ccc(C)cc1-n1nnc2cc(F)c(-n3c(=O)cc(C(F)(F)F)n(C)c3=O)cc21
Result: 6.0

Query: Could you tell me which IPOHE herbicidal rating is on file for Cn1c(C(F)(F)F)cc(=O)n(-c2cc3c(cc2F)nnn3-c2ccc(OCC(=O)O)cc2)c1=O ?
Result: 2.0

Query: Consider the compound shown here: C#CCOC(=O)COc1ccc(C)c(-n2nnc3cc(F)c(-n4c(=O)cc(C(F)(F)F)n(C)c4=O)cc32)c1 What is its recorded IPOHE herbicidal rating?
Result: 4.0

Query: Record request: IPOHE herbicidal rating value, item COc1ccccc1-n1nnc2cc(F)c(-n3c(=O)cc(C(F)(F)F)n(C)c3=O)cc21
Result: 9.0

Query: Using the record for Cc1ccc(O)cc1-n1nnc2cc(F)c(-n3c(=O)cc(C(F)(F)F)n(C)c3=O)cc21 , report its IPOHE herbicidal rating.
Result: 0.0

Query: Item C=CCOc1ccc(-n2nnc3cc(F)c(-n4c(=O)cc(C(F)(F)F)n(C)c4=O)cc32)c(C)c1 has what recorded IPOHE herbicidal rating?
Result: 0.0
